Give Activity for every item shown.
- Test system: Salmonella typhimurium
- EXPERIMENTAL_DETAILS: Induction of mutagenicity in Salmonella Typhimurium YG1042 assessed as number of revertant per nmol after 48 hrs
- Type: toxicity, organism-based
- TEST_PARAMETERS: salmonella enterica subsp. enterica serovar typhimurium
Give bare numbers.

Answered cases to consult:
# molecule Cc1ncc([N+](=O)[O-])n1CC(C)O (configuration not stated) ; its Activity = 23.78

Measured Activity, Cc1ccc(S(=O)(=O)Cc2ncn(C)c2[N+](=O)[O-])cc1 : 54.74

Please state Activity for every molecule in the list that follows.
1. Cn1cnc(CS(=O)(=O)c2ccc(F)cc2)c1[N+](=O)[O-]
2. Cc1ccc(S(=O)(=O)Cc2nc(C)n(C)c2[N+](=O)[O-])cc1
3. Cn1cnc(CS(=O)(=O)c2ccc(Cl)cc2)c1[N+](=O)[O-]

Completion:
1: 47.09; 2: 17; 3: 52.85

###

- Tested on: Salmonella typhimurium
- EXPERIMENTAL_DETAILS: Induction of mutagenicity in Salmonella Typhimurium YG1042 assessed as number of revertant per nmol after 48 hrs relative to metranidazole
- Assay type: toxicity, organism-based
- TEST_PARAMETERS: salmonella enterica subsp. enterica serovar typhimurium
Assign Activity to each entry below.

Below are worked cases with known answers.
Quick note, Activity for Cc1ccc(S(=O)(=O)Cc2nc(C)n(CCO)c2[N+](=O)[O-])cc1 landed at 0.02

Consider Cc1nc(CS(=O)(=O)c2ccc(F)cc2)c([N+](=O)[O-])n1CCO . Its measured Activity is 0.04

Reported Activity ( Cn1cncc1[N+](=O)[O-] ) = 2.34

Provide Activity values for the following items, in order.
1. Cc1ccc(S(=O)(=O)Cc2nc(C)n(C)c2[N+](=O)[O-])cc1
2. Cn1cnc(CS(=O)(=O)c2ccc(Cl)cc2)c1[N+](=O)[O-]
3. Cc1ccc(S(=O)(=O)Cc2ncn(C)c2[N+](=O)[O-])cc1
4. Cc1nc(CS(=O)(=O)c2ccccc2)c([N+](=O)[O-])n1CC(C)O (stereo unspecified)
5. Cc1ccc(S(=O)(=O)Cc2nc(C)n(CC(C)O)c2[N+](=O)[O-])cc1 (stereo unspecified)
6. Cn1cnc(CS(=O)(=O)c2ccccc2)c1[N+](=O)[O-]
7. Cc1nc(CS(=O)(=O)c2ccc(Cl)cc2)c([N+](=O)[O-])n1C

Completion:
[0.2, 0.63, 0.65, 0.04, 0.03, 0.59, 0.1]

The compound listed as Cc1nc(CS(=O)(=O)c2ccc(Cl)cc2)c([N+](=O)[O-])n1CC(C)O (stereo unspecified) has a reported Activity of 0.02

###

- Test system: Salmonella typhimurium
- EXPERIMENTAL_DETAILS: Ratio of number of revertant per nmol of drug for Salmonella Typhimurium YG1042 to number of revertant per nmol of drug for Salmonella Typhimurium TA100
- Type: toxicity, organism-based
- TEST_PARAMETERS: salmonella enterica subsp. enterica serovar typhimurium
REPORTED_PROPERTY: Ratio
Numbers only.

Please review the following examples before continuing.
Bench note, Salmonella typhimurium: Cc1nc(CS(=O)(=O)c2ccc(Cl)cc2)c([N+](=O)[O-])n1C , Ratio reads 3.5

Salmonella typhimurium Ratio of Cc1nc(CS(=O)(=O)c2ccccc2)c([N+](=O)[O-])n1C is 2.7

The compound Cn1cncc1[N+](=O)[O-] on Salmonella typhimurium: Ratio was 12.7

Short answer on Salmonella typhimurium for Cc1nc(CS(=O)(=O)c2ccc(F)cc2)c([N+](=O)[O-])n1CCO , Ratio: 5.3

Ratio on Salmonella typhimurium for Cc1nc(CS(=O)(=O)c2ccc(Br)cc2)c([N+](=O)[O-])n1CCO is 3.4

For each of the compounds below, state Ratio.
1. Cc1ccc(S(=O)(=O)Cc2nc(C)n(CC(C)O)c2[N+](=O)[O-])cc1 (configuration not stated)
2. Cc1ccc(S(=O)(=O)Cc2ncn(C)c2[N+](=O)[O-])cc1
3. Cc1nc(CS(=O)(=O)c2ccc(F)cc2)c([N+](=O)[O-])n1C
4. Cn1cnc(CS(=O)(=O)c2ccc(Cl)cc2)c1[N+](=O)[O-]
5. Cc1nc(CS(=O)(=O)c2ccccc2)c([N+](=O)[O-])n1CC(C)O (configuration not stated)

Completion:
1. 3.3
2. 2.7
3. 5.1
4. 1.2
5. 4.2
